Read-out: Thrombomodulin, THBD (gene 7056)
Test: BSK_CASM3C_Thrombomodulin: BioMAP Diversity Plus: CASM3C Assay for Thrombomodulin Biomarker Activity (AID 2283051);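 note: thrombomodulin protein level measured by ELISA 24 h after dosing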
Details: primary human coronary artery smooth muscle cells; actives raise or lower the signal
Calls of active or inactive are those of the source. Rule for the calls: active = hit-call score of the fitted dose curve at least 0.9, where 1 is the maximum; inactive = score below 0.9.
Outcomes: active, inactive

- compound: "C[C@]12C[C@H](O)[C@H]3[C@@H](CCC4=CC(=O)CC[C@@]43C)[C@@H]1CC[C@@H]2C(=O)CO"
  class_assignment: "inactive"
- compound: "CCSC(=O)N(CC(C)C)CC(C)C"
  class_assignment: "inactive"
- compound: "CCC(C)OC(=O)N1CCCCC1CCO (stereo unspecified)"
  class_assignment: "inactive"
- compound: "CC(C)(C)[C@@H](O)[C@@H](Cc1ccc(Cl)cc1)n1cncn1"
  class_assignment: "inactive"
- compound: "CSC(=O)c1cccc2nnsc12"
  class_assignment: "active"
- compound: "COC(=O)c1ccc(I)cc1S(=O)(=O)NC(=O)Nc1nc(C)nc(OC)n1"
  class_assignment: "inactive"
- compound: "COc1nc(C)nc(NC(=O)NS(=O)(=O)c2ccccc2OCCCl)n1"
  class_assignment: "inactive"
- compound: "O=C(Nc1ccc([N+](=O)[O-])cc1Cl)c1cc(Cl)ccc1O"
  class_assignment: "active"
- compound: "CCCCC(CC)COC(=O)c1ccccc1C(=O)O (stereo unspecified)"
  class_assignment: "inactive"
- compound: "Cc1nn(C)c(Oc2ccccc2)c1C=NOCc1ccc(C(=O)OC(C)(C)C)cc1"
  class_assignment: "active"
- compound: "CC1(C)C(C=C(Cl)Cl)C1C(=O)OCc1cccc(Oc2ccccc2)c1 (stereo unspecified)"
  class_assignment: "active"

----------
Test: APR_HepG2_MitoticArrest_24hr: Apredica 24-hour HepG2 Assay for Mitotic Arrest (AID 2282910)
Conditions: high-content imaging, actives raise or lower the signal
Activity calls are given as the source filed them. The calls were made as follows: active = hit-call score of the fitted dose curve at least 0.9, where 1 is the maximum; inactive = score below 0.9.
Labels: yes for active, no for inactive

- compound: "CCCCCCC(C)OC(=O)COc1nc(F)c(Cl)c(N)c1Cl (stereo not given)"
  class_assignment: "no"
- compound: "CC(=O)[C@H]1CC[C@H]2[C@@H]3CCC4=CC(=O)CC[C@]4(C)[C@H]3CC[C@]12C"
  class_assignment: "yes"
- compound: "CC(=O)S[C@@H]1CC2=CC(=O)CC[C@]2(C)[C@H]2CC[C@@]3(C)[C@@H](CC[C@@]34CCC(=O)O4)[C@H]12"
  class_assignment: "yes"
- compound: "CCOC(=O)c1ccc(O)cc1"
  class_assignment: "no"
- compound: "CCCOC(=O)NCCCN(C)C"
  class_assignment: "no"
- compound: "CCNc1nc(N)nc(Cl)n1"
  class_assignment: "no"
- compound: "CCOC(=O)[C@H](C)Oc1ccc(Oc2nc3ccc(Cl)cc3o2)cc1"
  class_assignment: "no"
- compound: "CCCCC(CC)COC(=O)c1ccccc1C(=O)O (stereo not given)"
  class_assignment: "no"
- compound: "C[C@]12CC[C@@H]3c4ccc(O)cc4C[C@@H](CCCCCCCCCS(=O)CCCC(F)(F)C(F)(F)F)[C@H]3[C@@H]1CC[C@@H]2O (stereo not given in full)"
  class_assignment: "no"
- compound: "C#C[C@]1(O)CC[C@H]2[C@@H]3CCC4=CC(=O)CC[C@@H]4[C@H]3CC[C@@]21CC"
  class_assignment: "no"
- compound: "CCC(O)=C1C(=O)CC(C(=O)O)CC1=O (stereo not given)"
  class_assignment: "no"
- compound: "CCSC(=O)N(CC(C)C)CC(C)C"
  class_assignment: "no"
- compound: "CC(C)(C)[C@@H](O)[C@@H](Cc1ccc(Cl)cc1)n1cncn1"
  class_assignment: "no"
- compound: "COCCO"
  class_assignment: "no"
- compound: "COC(=O)CSc1cc(N=c2sc(=O)n3n2CCCC3)c(F)cc1Cl"
  class_assignment: "no"
- compound: "CSC(=O)c1cccc2nnsc12"
  class_assignment: "no"
- compound: "Cc1nn(C)c(Oc2ccccc2)c1C=NOCc1ccc(C(=O)OC(C)(C)C)cc1"
  class_assignment: "no"
- compound: "O=C(c1ccc(O)cc1O)c1ccc(O)cc1O"
  class_assignment: "no"
- compound: "CCN(CC)C(=O)c1cccc(C)c1"
  class_assignment: "no"
- compound: "CCOC(=O)NCCOc1ccc(Oc2ccccc2)cc1"
  class_assignment: "no"
- compound: "N#CSCSc1nc2ccccc2s1"
  class_assignment: "no"
- compound: "CN(C)C(=O)Nc1ccc(Cl)c(Cl)c1"
  class_assignment: "no"
- compound: "CC1(C)C(C=C(Cl)Cl)C1C(=O)OCc1cccc(Oc2ccccc2)c1 (stereo not given)"
  class_assignment: "no"
- compound: "CCOC(=O)C(C)Oc1ccc(Oc2nc3ccc(Cl)cc3o2)cc1 (stereo not given)"
  class_assignment: "no"
- compound: "O=C(O)c1ccccc1"
  class_assignment: "no"
